- ASSAY_NAME: Cytotoxicity against human PANC1 cells under normoxic condition after 2 days by crystal violet method
- CONDITION_SUMMARY: PANC-1, 2 d
# maps each entry to its IC50
MEASURED_PROPERTY: IC50

| COMPOUND | RESULT |
| --- | --- |
| C=C1/C=C/C(=O)N(C)CC(=O)N[C@H]([C@@H](O)C(N)=O)C(=O)O[C@@H]([C@H](C)CCCCCCCCCCCC(C)C)[C@H](C)C(=O)N1 | 2300 nM |
| C=C1/C=C/C(=O)N(C)CC(=O)NC(C(O)C(N)=O)C(=O)OC(C(C)CCCCCCCCCCCCC(C)C)C(C)C(=O)N1 (stereo not drawn) | 3100 nM |
| COc1cccc2c1C(=O)c1c(O)c3c(c(O)c1C2=O)C[C@@](O)(C(=O)CO)C[C@@H]3O[C@H]1C[C@H](N)[C@H](O)[C@H](C)O1 | 1100 nM |

###

- ASSAY_NAME: Cytotoxicity against human PANC1 cells under normoxic condition after 2 days by crystal violet method
- CONDITION_SUMMARY: PANC-1, 2 d

| COMPOUND | IC50 [µM] |
| --- | --- |
| CC(C)CCCCCCCCCCC[C@@H](C)[C@H](O)[C@H](C)C(=O)NC(C)CCC(=O)N(C)CC(=O)N[C@@H](C(=O)O)[C@@H](O)C(N)=O (stereo partly drawn) | 27.4 |
| CC(C)CCCCCCCCCCC[C@@H](C)[C@@H]1OC(=O)[C@@H]([C@@H](O)C(N)=O)NC(=O)CN(C)C(=O)CCC(C)NC(=O)[C@H]1C (stereo partly drawn) | 19.3 |
| C=C1/C=C/C(=O)N(C)CC(=O)N[C@H]([C@@H](O)C(N)=O)C(=O)O[C@@H]([C@H](C)CCCCCCCCCCCCCC(C)C)[C@H](C)C(=O)N1 | 17.9 |

###

# maps each entry to its IC50
- ASSAY_NAME: Cytotoxicity against human HCT8 cells under normoxic condition after 2 days by crystal violet method
- CONDITION_SUMMARY: HCT-8, 2 d
MEASURED_PROPERTY: IC50 (µM)

| COMPOUND | RESULT |
| --- | --- |
| C=C1/C=C/C(=O)N(C)CC(=O)N[C@H]([C@@H](O)C(N)=O)C(=O)O[C@@H]([C@H](C)CCCCCCCCCCCCCC(C)C)[C@H](C)C(=O)N1 | 9.4 |
| C=C1/C=C/C(=O)N(C)CC(=O)NC(C(O)C(N)=O)C(=O)OC(C(C)CCCCCCCCCCCCC(C)C)C(C)C(=O)N1 (stereo unspecified) | 2.1 |
| CC(C)CCCCCCCCCCC[C@@H](C)[C@H](O)[C@H](C)C(=O)NC(C)CCC(=O)N(C)CC(=O)N[C@@H](C(=O)O)[C@@H](O)C(N)=O (stereo partly specified) | 33.9 |
| COc1cccc2c1C(=O)c1c(O)c3c(c(O)c1C2=O)C[C@@](O)(C(=O)CO)C[C@@H]3O[C@H]1C[C@H](N)[C@H](O)[C@H](C)O1 [DOXORUBICIN] | 2.4 |
| CC(C)CCCCCCCCCCC[C@@H](C)[C@@H]1OC(=O)[C@@H]([C@@H](O)C(N)=O)NC(=O)CN(C)C(=O)CCC(C)NC(=O)[C@H]1C (stereo partly specified) | 27.7 |
| C=C1/C=C/C(=O)N(C)CC(=O)N[C@H]([C@@H](O)C(N)=O)C(=O)O[C@@H]([C@H](C)CCCCCCCCCCCC(C)C)[C@H](C)C(=O)N1 | 3.9 |
